Numbers sourced from the supplement of paper PMC10567573.

assay-name: protein stability index of a GFP-peptide fusion (GPS, HEK-293T) (PSI 1-6); higher = more stable;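 also: 24-mer peptide tiles fused after GFP, lentivirally expressed, FACS-sorted into six equal bins by GFP/DsRed ratio, decoded by Illumina sequencing, PSI is the read-weighted mean bin number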
experimental-setup: treatment: MLN4924 1 uM, 8 h; c terminus: a fixed tail appended
measured-metric: protein stability index
API note: the answer field is a bare number with no unit suffix.

**Q:** For the sequence GFAMYYFTYDPWIGKLLYLEDFFV [SAT1] , what protein stability index is on record?
**A:** 3.03

**Q:** For the sequence LGAVAVFAVGYIKISWSTWGEMTL [SLC19A2] , what protein stability index is on record?
**A:** 2.97

**Q:** For the sequence NSGLINHQRIHTGEKPYECVQCGK [ZNF24] , what protein stability index is on record?
**A:** 3.99

**Q:** For the sequence VQGPGVVGEFPIISPGRVYEYTSC [FBXO3] , what protein stability index is on record?
**A:** 3

**Q:** For the sequence STHLTVHRRIHTGEKPYECQDCGR [ZNF8] , what protein stability index is on record?
**A:** 4.1

**Q:** For the sequence SVPIVYEKYKTQIDHYVGIARDQT [RTN3] , what protein stability index is on record?
**A:** 3.06

----------
assay-name: protein stability index of a GFP-peptide fusion (GPS, HEK-293T) (PSI 1-6); higher = more stable
experimental-setup: treatment: MLN4924 1 uM, 8 h; c terminus: a fixed tail appended
measured-metric: protein stability index
API note: the answer field is a bare number with no unit suffix.

**Q:** For the sequence GEINVEMDAAPGVDLSRILNEMRD [KRT17] , what protein stability index is on record?
**A:** 3.99

**Q:** For the sequence KIQASGETPNSLNTTVIPNGSMAM [LYSMD4] , what protein stability index is on record?
**A:** 4.09

**Q:** For the sequence AGFSPDCIMDDAINILQNEKSHQV [INTS4] , what protein stability index is on record?
**A:** 4.17

**Q:** For the sequence EQQHYFNTPFQLSIAPPEAEGVVL [PPTC7] , what protein stability index is on record?
**A:** 3.56

**Q:** For the sequence FSSERGPRMCRYVRERDRLGNEYP [CDC25A] , what protein stability index is on record?
**A:** 2.61

**Q:** For the sequence GGGSSRISSVLAGGSCRAPSTYGG [KRT16] , what protein stability index is on record?
**A:** 3.46

**Q:** For the sequence QKLGSGAWDNPAYSGPPSPHGTLR [PKD2L1] , what protein stability index is on record?
**A:** 3.95

**Q:** For the sequence KKIFAQLDSIIDDRVILSSSTSCL [CRYL1] , what protein stability index is on record?
**A:** 2.58

**Q:** For the sequence LALHPEAPGLYNHLPWQYHAGQGG [CCDC3] , what protein stability index is on record?
**A:** 2.63

**Q:** For the sequence KHAGKDPVRDECEERNRFTETREE [FAM9B] , what protein stability index is on record?
**A:** 5.49

**Q:** For the sequence SKLEERFGPDSKSSALACTLPTLP [NCF4] , what protein stability index is on record?
**A:** 4.21

**Q:** For the sequence FLSLEASTETLVHVSDEDNNADLC [DLC1] , what protein stability index is on record?
**A:** 5.2

**Q:** For the sequence AAEMYQRGRAVLREAGFHQYEVSN [RSAD1] , what protein stability index is on record?
**A:** 3.29

**Q:** For the sequence FYLALYKQMSFLEKRGCPRTALEY [TCF25] , what protein stability index is on record?
**A:** 2.01

**Q:** For the sequence ALGNLVEGMDFHRFYFENLLAKNS [CAMK2B] , what protein stability index is on record?
**A:** 2.35

**Q:** For the sequence CDWLRATGFPQYAQLYEDFLFPID [DLC1] , what protein stability index is on record?
**A:** 2.26

**Q:** For the sequence PASTPSVLSSEQEFQMFPKSRLSS [ETS2] , what protein stability index is on record?
**A:** 4.57

**Q:** For the sequence MQVLVTAISPGRFPEALDELPLPP [ANKRD9] , what protein stability index is on record?
**A:** 2.23

**Q:** For the sequence ADAFHHQVHDDDLLSSSEEECKDR [EMD] , what protein stability index is on record?
**A:** 5.66

**Q:** For the sequence DGLLGDNQIMPKAGLLIIVLAIIA [MAGEA3] , what protein stability index is on record?
**A:** 2.46

**Q:** For the sequence AGDRFLEALGFSWHDTCFVCAICQ [PDLIM7] , what protein stability index is on record?
**A:** 2.52

**Q:** For the sequence FDSSRQRAEGTDIPTVKPLKPRPE [ZC2HC1A] , what protein stability index is on record?
**A:** 5.09

**Q:** For the sequence KCRMEESNAERGTAEPFPRLHNLY [CBY2] , what protein stability index is on record?
**A:** 2.78

**Q:** For the sequence HEGEDQFLSLEASTETLVHVSDED [DLC1] , what protein stability index is on record?
**A:** 5.58

**Q:** For the sequence FSAHYDAVEAELKSSTVGLVTLND [FAM50A] , what protein stability index is on record?
**A:** 3.94

**Q:** For the sequence ETPNSLNTTVIPNGSMAMGTVPGQ [LYSMD4] , what protein stability index is on record?
**A:** 4.42

**Q:** For the sequence KSCYNGRFQLLYVACGMVHLLIPE [DNAAF3] , what protein stability index is on record?
**A:** 2.77

**Q:** For the sequence KARGKSGPLFNFDVHDDVRLLSDA [FAM50A] , what protein stability index is on record?
**A:** 3.81

**Q:** For the sequence TSRDRKDHMVRMHLYPADFRFDKP [ZNF511] , what protein stability index is on record?
**A:** 3.22

**Q:** For the sequence ASSSRSVRTTRGKRKRVDVEESEA [LMNB1] , what protein stability index is on record?
**A:** 5.49

**Q:** For the sequence ETRVWHRRDGKWQIVHFHRSGAPS [CAMK2A] , what protein stability index is on record?
**A:** 3.1
